Target: CYP3A4 (Homo sapiens)
Sequence (P08684 whole entry): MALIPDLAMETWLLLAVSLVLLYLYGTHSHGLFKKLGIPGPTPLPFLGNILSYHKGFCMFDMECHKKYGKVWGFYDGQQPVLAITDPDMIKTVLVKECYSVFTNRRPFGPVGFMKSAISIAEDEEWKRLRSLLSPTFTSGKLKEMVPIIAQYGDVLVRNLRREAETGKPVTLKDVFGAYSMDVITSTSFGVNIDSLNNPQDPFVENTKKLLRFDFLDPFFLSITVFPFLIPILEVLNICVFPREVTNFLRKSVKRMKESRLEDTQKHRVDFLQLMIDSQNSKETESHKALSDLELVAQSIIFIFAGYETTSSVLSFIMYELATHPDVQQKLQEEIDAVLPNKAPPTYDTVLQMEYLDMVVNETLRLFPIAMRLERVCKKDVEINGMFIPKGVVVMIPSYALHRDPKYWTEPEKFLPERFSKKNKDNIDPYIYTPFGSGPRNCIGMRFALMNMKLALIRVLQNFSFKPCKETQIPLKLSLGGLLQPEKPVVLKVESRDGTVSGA
Test Method Notes: Activation of recombinant human CYP3A4 using Luciferin-BE as substrate at 25 uM in presence of NADPH by P450-Glo luminescence assay relative to control
Format: ADME
Condition Set: recombinant human CYP3A4, probe Luciferin-PPXE, in the assay text read “Luciferin-PPXE” for “Luciferin-BE”, read-out: Activity
Measured Attribute: activity at 25 µM (%)

Molecule | Measured Attribute | Test Value
CCC(C)(C)c1ccc(OCCCCCN2CCCCC2)cc1.O=C(O)C(=O)O | activity at 25 µM | 21
CCC(C)(C)c1ccc(OCCCCCN2CCC(C)CC2)cc1 | activity at 25 µM | 325
CCC(C)(C)c1ccc(OCCCCCN2CCCCCC2)cc1.O=C(O)C(=O)O | activity at 25 µM | 76
CCC(C)(C)c1ccc(OCCCCCN2CCCC(C)C2)cc1.O=C(O)C(=O)O (centres undefined) | activity at 25 µM | 52

====

Target: Histamine H3 receptor (Homo sapiens)
Sequence (Q9Y5N1 whole entry): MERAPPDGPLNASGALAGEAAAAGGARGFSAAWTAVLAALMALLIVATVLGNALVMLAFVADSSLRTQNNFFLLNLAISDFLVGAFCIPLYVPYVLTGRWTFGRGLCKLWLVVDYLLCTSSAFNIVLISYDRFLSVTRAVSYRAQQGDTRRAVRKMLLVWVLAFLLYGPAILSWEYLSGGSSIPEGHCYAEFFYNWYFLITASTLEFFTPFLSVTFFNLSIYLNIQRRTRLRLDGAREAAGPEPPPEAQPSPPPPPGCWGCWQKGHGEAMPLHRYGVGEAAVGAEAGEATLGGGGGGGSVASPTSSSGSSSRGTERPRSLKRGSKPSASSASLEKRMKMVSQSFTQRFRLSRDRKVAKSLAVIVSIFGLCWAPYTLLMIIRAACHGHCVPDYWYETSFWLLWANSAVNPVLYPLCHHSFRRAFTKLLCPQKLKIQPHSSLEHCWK
Test Method Notes: Displacement of [3H]Nalpha-Methylhistamine from recombinant human histamine H3 receptor expressed in HEK293 cell membranes after 90 mins by liquid scintillation counting analysis

Compound | Target | Ki, nM
CCC(C)(C)c1ccc(OCCCCN2CCCCCC2)cc1.O=C(O)C(=O)O | Histamine H3 receptor (Homo sapiens) | 68
CCC(C)(C)c1ccc(OCCCCN2CCCCC2)cc1.O=C(O)C(=O)O | Histamine H3 receptor (Homo sapiens) | 140
CCC(C)(C)c1ccc(OCCCCN2CCC(C)CC2)cc1.O=C(O)C(=O)O | Histamine H3 receptor (Homo sapiens) | 238
CCC(C)(C)c1ccc(OCCCCN2CCCC(C)C2)cc1.O=C(O)C(=O)O (centres undefined) | Histamine H3 receptor (Homo sapiens) | 46

====

Test system: Mus musculus
Test Method Notes: Anticonvulsant activity in CF-1 albino mouse assessed as protection against subcutaneous pentetrazole-induced seizures at 100 mg/kg, ip after 4 hrs
Type: functional, organism-based
The source made the active and inactive calls. The calls are words filed in the database; no cut-off is given here.

Compound | Activity
CCC(C)(C)c1ccc(OCCCCCCCCN2CCC(C)CC2)cc1.O=C(O)C(=O)O | inactive
CCC(C)(C)c1ccc(OCCCCCCCN2CCCC(C)C2)cc1.O=C(O)C(=O)O (centres undefined) | inactive
CCC(C)(C)c1ccc(OCCCCCCN2CCCCC2)cc1.O=C(O)C(=O)O | inactive
CCC(C)(C)c1ccc(OCCCCCCCN2CCCCC2)cc1.O=C(O)C(=O)O | inactive

====

System: Mus musculus
Test Method Notes: Anticonvulsant activity in CF-1 albino mouse assessed as protection against maximal electroshock-induced seizures at 30 mg/kg, ip after 0.5 hrs
Type: functional, organism-based
The source made the active and inactive calls. The rule behind the calls is not given here.

Compound | Target | Activity
CCC(C)(C)c1ccc(OCCCCCCCN2CCCCC2)cc1.O=C(O)C(=O)O | Mus musculus | inactive
CCC(C)(C)c1ccc(OCCCCCCN2CCCCCC2)cc1.O=C(O)C(=O)O | Mus musculus | inactive
CCC(C)(C)c1ccc(OCCCCN2CCCCC2)cc1.O=C(O)C(=O)O | Mus musculus | Active
CCC(C)(C)c1ccc(OCCCCCCCN2CCC(C)CC2)cc1.O=C(O)C(=O)O | Mus musculus | inactive
CCC(C)(C)c1ccc(OCCCCN2CCC(C)CC2)cc1.O=C(O)C(=O)O | Mus musculus | Active
CCC(C)(C)c1ccc(OCCCCCCCN2CCCC(C)C2)cc1.O=C(O)C(=O)O (stereo not given) | Mus musculus | inactive
CCC(C)(C)c1ccc(OCCCCCCN2CCC(C)CC2)cc1.O=C(O)C(=O)O | Mus musculus | Active
CCC(C)(C)c1ccc(OCCCCCCN2CCCC(C)C2)cc1.O=C(O)C(=O)O (stereo not given) | Mus musculus | Active
CCC(C)(C)c1ccc(OCCCCN2CCCC(C)C2)cc1.O=C(O)C(=O)O (stereo not given) | Mus musculus | Active
CCC(C)(C)c1ccc(OCCCCCN2CCCCCC2)cc1.O=C(O)C(=O)O | Mus musculus | Active

Values were extracted from ChEMBL document CHEMBL4219023.
